target-system: recombinant human SK (Homo sapiens, UniProt Q9NYA1)
Construct: GST (glutathione-S-transferase) (N); made in house; host or cells: bacteria (pGEX bacterial expression vector)
Sequence (Q9NYA1 whole entry): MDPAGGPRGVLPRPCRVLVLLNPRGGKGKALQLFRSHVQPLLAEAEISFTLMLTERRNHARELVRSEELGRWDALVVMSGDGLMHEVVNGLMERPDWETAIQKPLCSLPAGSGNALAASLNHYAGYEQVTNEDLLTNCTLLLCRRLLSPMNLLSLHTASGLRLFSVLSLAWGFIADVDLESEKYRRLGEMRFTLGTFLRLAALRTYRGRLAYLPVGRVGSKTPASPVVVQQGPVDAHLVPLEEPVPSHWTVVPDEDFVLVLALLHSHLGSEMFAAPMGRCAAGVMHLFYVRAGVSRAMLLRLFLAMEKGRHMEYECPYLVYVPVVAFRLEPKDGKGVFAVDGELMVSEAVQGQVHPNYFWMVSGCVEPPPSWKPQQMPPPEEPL
procedure-text: Recombinant human SK activity assay ([3H]sphingosine to [3H]S1P)
Type: biochemical
recorded-conditions: Human SK incubated with 6 μg/mL of compound; percentage of SK activity inhibited
parameter: inhibition at 6 µg/mL (%)

O=C(NCc1ccc(O)c(O)c1)C12CC3CC(C1)CC(c1ccc(Cl)cc1)(C3)C2 = 37

[1] O=C(NCc1ccc(OC(F)(F)F)cc1)C12CC3CC(C1)CC(c1ccc(Cl)cc1)(C3)C2
[2] O=C(Nc1ncnc2[nH]cnc12)C12CC3CC(C1)CC(c1ccc(Cl)cc1)(C3)C2
Of 1 and 2 , which one carries the higher reported inhibition at 6 µg/mL? Indicate which entry you chose by stating its label. 2

----------
target-system: recombinant human SK (Homo sapiens)
Construct: GST (glutathione-S-transferase) (N); made in house; host or cells: bacteria (pGEX bacterial expression vector)
procedure-text: Recombinant human SK activity assay ([3H]sphingosine to [3H]S1P)
Assay type: biochemical
recorded-conditions: Human SK incubated with 6 μg/mL of compound; percentage of SK activity inhibited
parameter: inhibition at 6 µg/mL (%)

Worked examples, 5 compounds total:
O=C(/C=C/c1ccc2ccccc2c1)C12CC3CC(C1)CC(c1ccc(Cl)cc1)(C3)C2 = 36
O=C1CCCN1CCCNC(=O)C12CC3CC(C1)CC(c1ccc(Cl)cc1)(C3)C2 = 8
Fc1ccc(CNCC23CC4CC(C2)CC(c2ccc(Cl)cc2)(C4)C3)cc1C(F)(F)F = 19
CN1CCCC1CCNC(=O)C12CC3CC(C1)CC(c1ccc(Cl)cc1)(C3)C2 (stereo not shown) = 30
N#CCc1ccc(NC(=O)C23CC4CC(C2)CC(c2ccc(Cl)cc2)(C4)C3)cc1 = 17

[1] Clc1ccc(C23CC4CC(CC(CNCCc5cccc(Oc6ccccc6)c5)(C4)C2)C3)cc1
[2] O=C(NCCc1ccc(O)cc1)C12CC3CC(C1)CC(c1ccc(Cl)cc1)(C3)C2
[3] Clc1ccc(-c2cnc(NCC34CC5CC(C3)CC(c3ccc(Cl)cc3)(C5)C4)s2)cc1
Give the ascending ranking of the items by reported inhibition at 6 µg/mL. Reply format: the labels, ordered as requested. 3, 1, 2
(3: 26%, 1: 67%, 2: 100%)

[a] Clc1ccc(C23CC4CC(CC(CNCCCN5CCCC5)(C4)C2)C3)cc1
[b] O=C(NCCc1ccccc1)C12CC3CC(C1)CC(c1ccc(Cl)cc1)(C3)C2
[c] O=C(NCc1ccc(C(F)(F)F)cc1)C12CC3CC(C1)CC(c1ccc(Cl)cc1)(C3)C2
Provide the items ranked by increasing inhibition at 6 µg/mL. List the labels according to the requested ordering. a, c, b
(a: 0%, c: 8%, b: 24%)

----------
target-system: recombinant human SK (Homo sapiens)
Construct: GST (glutathione-S-transferase) (N); made in house; host or cells: bacteria (pGEX bacterial expression vector)
procedure-text: Recombinant human SK activity assay ([3H]sphingosine to [3H]S1P)
Format: biochemical
recorded-conditions: Human SK incubated with 6 μg/mL of compound; percentage of SK activity inhibited
parameter: inhibition at 6 µg/mL (%)

Consider the following illustrative entries.
O=C(/C=C/c1ccc(Cl)cc1)C12CC3CC(C1)CC(c1ccc(Cl)cc1)(C3)C2 = 38
O=C(NCc1cc(F)cc(F)c1)C12CC3CC(C1)CC(c1ccc(Cl)cc1)(C3)C2 = 0
Clc1ccc(C23CC4CC(CC(CNCCN5CCOCC5)(C4)C2)C3)cc1 = 75

[I] Cc1cc2cc(NC(=O)C34CC5CC(C3)CC(c3ccc(Cl)cc3)(C5)C4)ccc2[nH]1
[II] O=C(Nc1nc2ccccc2s1)C12CC3CC(C1)CC(c1ccc(Cl)cc1)(C3)C2
[III] O=C(NCCc1ccncc1)C12CC3CC(C1)CC(c1ccc(Cl)cc1)(C3)C2
[IV] CN1CCCC1CCNCC12CC3CC(C1)CC(c1ccc(Cl)cc1)(C3)C2 (centres unmarked)
[V] CN1CCN(NCC23CC4CC(C2)CC(c2ccc(Cl)cc2)(C4)C3)CC1
Output the entries ranked by inhibition at 6 µg/mL from maximum down to minimum. // ordering of labels required in reply I, V, III, II, IV
